inhibition at 10 µM by entry:
# Test system: tumor-repopulating cells of B16-F1 melanoma
# ASSAY COMMENT: Inhibitory activity on proliferation of tumor-repopulating cells (TRCs) of B16-F1 melanoma in 3D fibrin gel
# Type: cell-based
# MEASUREMENT SETUP: Mus musculus, B16-F1, 120 h; 10 μM, incubated 5 days, colony tumor size; read-out: Inhibition rate on TRCs of B16-F1 melanoma at a concentration of 10 μM (%)
RECORDED ENDPOINT: inhibition at 10 µM (%)

>>> value_observed("CC1(C)CCC(C)(C)c2cc(C#Cc3ccc(C(=O)O)nc3)ccc21")
87.5
>>> value_observed("CC1(C)CC=C(c2ccccc2)c2cc(C#Cc3ccc(C(=O)O)c(F)c3)ccc21")
15.2
>>> value_observed("CCOC(=O)c1cnc(C#Cc2ccc3c(c2)C(C)(C)CCS3)cn1")
78.8
>>> value_observed("CCOC(=O)c1ncc(C#Cc2ccc3c(c2)C(C)(C)CC[S+]3[O-])cn1 (centres unmarked)")
27.7
>>> value_observed("CC(=O)Nc1cc(C(=O)O)ccc1C#Cc1ccc2c(c1)C(C)(C)CCS2")
65.8

* * *

# Tested on: tumor-repopulating cells of B16-F1 melanoma
# ASSAY COMMENT: Inhibitory activity on proliferation of tumor-repopulating cells (TRCs) of B16-F1 melanoma in 3D fibrin gel
# Assay type: cell-based
# MEASUREMENT SETUP: Mus musculus, B16-F1, 120 h; 10 μM, incubated 5 days, colony tumor size; read-out: Inhibition rate on TRCs of B16-F1 melanoma at a concentration of 10 μM (%)
# Experimental: B16-F1 Melanoma cells were incubated with 3D fibrin gel medium (90-Pa) for 5 days, and the desired tumor-repopulating cells of melanoma were screened (Nat. Mater. 2012, 11, 734). […] The colony tumor size was measured and calculated, and the inhibition rate of each drug on the tumor-repopulating cells of B16-F1 melanoma was calculated. […]
RECORDED ENDPOINT: inhibition at 10 µM

>>> value_observed("COC(=O)c1ccc(C#Cc2ccc3c(c2)C(C)(C)CCS3)c(NC(C)=O)c1")
"76.2%"
>>> value_observed("COc1cc(C#Cc2ccc3c(c2)C(C)(C)CCS3)ccc1C(=O)O")
"72.4%"
>>> value_observed("CC1(C)CCSc2ccc(C#Cc3ncc(C(=O)O)cn3)cc21")
"77.2%"
>>> value_observed("CCOC(=O)c1cnc(C#Cc2ccc3c(c2)C(C)(C)CCC3(C)C)nc1")
"96%"
>>> value_observed("CCOC(=O)c1ncc(C#Cc2ccc3c(c2)C(C)(C)CCS3)cn1")
"91.5%"
>>> value_observed("COC(=O)c1ccc(C#Cc2ccc3c(c2)C(C)(C)CCS3)cc1N")
"65.5%"
>>> value_observed("CCOC(=O)c1ccc(C#Cc2ccc3c(c2)C(C)(C)CCS3)c([N+](=O)[O-])c1")
"71.9%"
>>> value_observed("CC1(C)CCSc2ccc(C#Cc3cnc(C#N)nc3)cc21")
"85.3%"
>>> value_observed("CCOC(=O)c1ccc(C#Cc2ccc3c(c2)C(C)(C)CC[S+]3[O-])c(NC(C)=O)c1 (stereo not shown)")
"60%"
>>> value_observed("CC1(C)CCSc2ccc(C#Cc3ccc(C(=O)O)c(F)c3)cc21")
"75.8%"
>>> value_observed("COC(=O)c1ncc(C#Cc2ccc3c(c2)C(C)(C)CCS3)cn1")
"25.6%"
>>> value_observed("CCOC(=O)c1ccc(C#Cc2ccc3c(c2)C(C)(C)CC[S+]3[O-])cc1Cl (stereo not shown)")
"73.4%"
>>> value_observed("CCOC(=O)c1ccc(C#Cc2ccc3c(c2)C(C)(C)CC[S+]3[O-])c([N+](=O)[O-])c1 (stereo not shown)")
"80.2%"
>>> value_observed("CCOC(=O)c1ccc(C#Cc2ccc3c(c2)C(C)(C)CCS3)cc1Cl")
"74.2%"
>>> value_observed("CC1(C)CCSc2ccc(C#Cc3ccc(C(=O)O)c(Cl)c3)cc21")
"75.7%"
>>> value_observed("COC(=O)c1ccc(C#Cc2ccc3c(c2)C(C)(C)CC[S+]3[O-])c(NC(C)=O)c1 (stereo not shown)")
"78.2%"
>>> value_observed("COC(=O)c1ccc(C#Cc2ccc3c(c2)C(c2ccccc2)=CCC3(C)C)cc1O")
"34.4%"
>>> value_observed("CC1(C)CCC(C)(C)c2cc(C#Cc3cnc(C#N)nc3)ccc21")
"94.5%"
>>> value_observed("CCOC(=O)c1ccc(C#Cc2ccc3c(c2)C(C)(C)CCS3)cc1F")
"71.1%"

* * *

# Tested on: tumor-repopulating cells of B16-F1 melanoma
# ASSAY COMMENT: Inhibitory activity on proliferation of tumor-repopulating cells (TRCs) of B16-F1 melanoma in 3D fibrin gel
# Type: cell-based
# MEASUREMENT SETUP: dose-response curve, colony tumor volume; read-out: IC50 of inhibition on TRCs of B16-F1 melanoma/μM
RECORDED ENDPOINT: IC50 (µM)

>>> value_observed("CCOC(=O)c1cnc(C#Cc2ccc3c(c2)C(C)(C)CC[S@+]3[O-])nc1 [WYC-209A]")
0.15
>>> value_observed("CCOC(=O)c1cnc(C#Cc2ccc3c(c2)C(C)(C)CC[S+]3[O-])nc1 (centres unmarked)")
0.19

* * *

# Tested on: tumor-repopulating cells of B16-F1 melanoma
# ASSAY COMMENT: Inhibitory activity on proliferation of tumor-repopulating cells (TRCs) of B16-F1 melanoma in 3D fibrin gel
# Type: cell-based
# MEASUREMENT SETUP: Mus musculus, B16-F1, 120 h; 10 μM, incubated 5 days, colony tumor size; read-out: Inhibition rate on TRCs of B16-F1 melanoma at a concentration of 10 μM (%)
RECORDED ENDPOINT: inhibition at 10 µM

>>> value_observed("CC1(C)CCSc2ccc(C#Cc3ccc(C(=O)O)c(N)c3)cc21")
"93.2%"
>>> value_observed("CNc1cc(C#Cc2ccc3c(c2)C(C)(C)CCS3)ccc1C(=O)OC")
"64.8%"
>>> value_observed("CC1(C)CCC(C)(C)c2cc(C#Cc3ccc(C(=O)O)c(N)c3)ccc21")
"79%"
>>> value_observed("CC(=O)Nc1cc(C#Cc2ccc3c(c2)C(C)(C)CCC3(C)C)ccc1C(=O)O")
"86.7%"
>>> value_observed("CCOC(=O)c1cnc(C#Cc2ccc3c(c2)C(C)(C)CCC3(C)C)cn1")
"77.6%"
>>> value_observed("CCOC(=O)c1cnc(C#Cc2ccc3c(c2)C(C)(C)CCS3)nc1")
"90.5%"
>>> value_observed("CCOC(=O)c1cnc(C#Cc2ccc3c(c2)C(C)(C)CC[S@@+]3[O-])nc1 [WYC-209B]")
"98.7%"
>>> value_observed("C=C(c1ccc(C(=O)O)cc1)c1cc2c(cc1C)C(C)(C)CCC2(C)C [Bexarotene, reference compound]")
"63.3%"
>>> value_observed("CCOC(=O)c1ccc(C#Cc2ccc3c(c2)C(C)(C)CCC3(C)C)cn1")
"87%"

* * *

# Test system: tumor-repopulating cells of B16-F1 melanoma
# ASSAY COMMENT: Inhibitory activity on proliferation of tumor-repopulating cells (TRCs) of B16-F1 melanoma in 3D fibrin gel
# Type: cell-based
# MEASUREMENT SETUP: Mus musculus, B16-F1, 120 h; 10 μM, incubated 5 days, colony tumor size; read-out: Inhibition rate on TRCs of B16-F1 melanoma at a concentration of 10 μM (%)
Use MET when the recorded inhibition at 10 µM is no lower than 80%; use NOT MET when it is lower.

>>> category("CC1(C)CCC(C)(C)c2cc(C#Cc3ccc(C(=O)O)c(O)c3)ccc21 [WYC-335]")
"MET"
>>> category("CC1(C)CC[S+]([O-])c2ccc(C#Cc3cnc(C#N)nc3)cc21 (centres unmarked) [WYC-207]")
"MET"
>>> category("CCOC(=O)c1ccc(C#Cc2ccc3c(c2)C(C)(C)CCS3)c(NC(C)=O)c1 [WYC-317]")
"MET"
>>> category("CC1(C)CC[S+]([O-])c2ccc(C#Cc3ncc(C(=O)O)cn3)cc21 (centres unmarked) [WYC-210]")
"NOT MET"
>>> category("CC1(C)CCSc2ccc(C#Cc3cnc(C(=O)O)cn3)cc21 [WYC-323]")
"NOT MET"
>>> category("CC1(C)CCC(C)(C)c2cc(C#Cc3ccc(C#N)cn3)ccc21 [WYC-333]")
"NOT MET"
>>> category("CC1(C)CCSc2ccc(C#Cc3ccc(C(=O)O)cc3F)cc21 [WYC-310]")
"NOT MET"
>>> category("CC1(C)CC[S+]([O-])c2ccc(C#Cc3ccc(C(=O)O)c(N)c3)cc21 (centres unmarked) [WYC-214]")
"NOT MET"
>>> category("CCOC(=O)c1ccc(C#Cc2ccc3c(c2)C(C)(C)CCS3)cc1NC(C)=O [WYC-217]")
"MET"
>>> category("CC1(C)CCSc2ccc(C#Cc3ccc(C(=O)O)cc3[N+](=O)[O-])cc21 [WYC-309]")
"NOT MET"
>>> category("CCOC(=O)c1ccc(C#Cc2ccc3c(c2)C(C)(C)CCS3)cc1N [WYC-216]")
"MET"
>>> category("COC(=O)c1ccc(C#Cc2ccc3c(c2)C(C)(C)CCS3)cc1OC [WYC-102]")
"NOT MET"
>>> category("CCOC(=O)c1ccc(C#Cc2ccc3c(c2)C(c2ccccc2)=CCC3(C)C)cc1F [WYC-305]")
"NOT MET"
